Biological target: HCV NS3 protease (full length NS34a) (Hepatitis C virus genotype 1b, UniProt P26663)
Construct: The protease activity of the full length NS34a was measured using a FRET-based assay; made in house
Sequence (P26663 1658-1711): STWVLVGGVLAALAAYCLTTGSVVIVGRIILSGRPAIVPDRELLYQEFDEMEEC
Sequence (P26663 1027-1657): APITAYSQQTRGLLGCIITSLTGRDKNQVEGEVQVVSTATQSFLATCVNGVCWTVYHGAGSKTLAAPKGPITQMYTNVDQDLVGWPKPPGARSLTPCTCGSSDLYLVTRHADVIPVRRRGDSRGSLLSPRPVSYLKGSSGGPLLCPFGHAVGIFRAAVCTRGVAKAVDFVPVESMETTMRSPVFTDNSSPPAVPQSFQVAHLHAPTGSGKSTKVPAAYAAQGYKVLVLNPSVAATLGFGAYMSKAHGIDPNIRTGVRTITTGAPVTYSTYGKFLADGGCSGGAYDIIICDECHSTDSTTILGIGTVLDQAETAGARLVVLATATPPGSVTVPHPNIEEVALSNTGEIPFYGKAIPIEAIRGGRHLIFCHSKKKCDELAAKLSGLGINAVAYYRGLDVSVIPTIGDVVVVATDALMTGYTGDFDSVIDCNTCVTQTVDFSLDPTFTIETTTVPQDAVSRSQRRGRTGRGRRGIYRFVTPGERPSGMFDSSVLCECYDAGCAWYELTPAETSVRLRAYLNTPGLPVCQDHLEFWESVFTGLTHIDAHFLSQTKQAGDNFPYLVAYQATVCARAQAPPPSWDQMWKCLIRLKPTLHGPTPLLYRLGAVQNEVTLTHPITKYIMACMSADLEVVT
Test: HCV NS3 protease assay (FRET, full length NS34a)
Assay type: biochemical
Settings: protease activity of full length NS34a, FRET peptide substrate; read-out: Activity IC50
pIC50: −log10 of the molar value. Counter-ions that a name gives are not always drawn.
pIC50 values for the compounds below.
assay-metric: pIC50

{"compound": "COCC[C@@H](N)c1ccc(Cl)c(Oc2ccccc2)c1F [Example 337, hydrochloride]", "measured": 5.12}
{"compound": "Cc1cc(Oc2c(F)ccc(CNc3ccncc3)c2F)ccc1N [Example 225B, hydrochloride]", "measured": 6.14}
{"compound": "CC[C@@H](N[C@@H](C)CC(=O)NCCO)c1ccc(Cl)c(Oc2ccccc2)c1F", "measured": 6.96}

====

Target: HCV NS3 protease (full length NS34a) (Hepatitis C virus genotype 1b)
Construct: The protease activity of the full length NS34a was measured using a FRET-based assay; made in house
Test: HCV NS3 protease assay (FRET, full length NS34a)
Type: biochemical
Conditions: protease activity of full length NS34a, FRET peptide substrate; read-out: Activity IC50
assay-metric: IC50

{"compound": "CC[C@@H](CC(N)=O)N[C@H](CC)c1ccc(Cl)c(Oc2ccccc2)c1F [Example 134B]", "measured": "0.084 µM"}
{"compound": "CCC(CC)[C@H](N)c1ccc(Cl)c(Oc2ccccc2)c1F [Example 347]", "measured": "2.7 µM"}
{"compound": "NC(C1=CCCCC1)c1ccc(F)c(Oc2ccccc2)c1F (stereo not drawn) [Example 40]", "measured": "6.3 µM"}

====

Target: HCV NS3 protease (full length NS34a) (Hepatitis C virus genotype 1b, UniProt P26663)
Construct: The protease activity of the full length NS34a was measured using a FRET-based assay; made in house
Assay: HCV NS3 protease assay (FRET, full length NS34a)
Assay type: biochemical
Conditions: protease activity of full length NS34a, FRET peptide substrate; read-out: Activity IC50
pIC50: −log10 of the molar value.
Short version: pIC50 at least 6 is yes, less is no.

{"molecule": "CC[C@H](N)c1ccc(Cl)c(Oc2cccc(C(C)O)c2)c1F (some centres unmarked) [Example 132B]", "system-tested": "HCV NS3 protease (full length NS34a) (Hepatitis C virus genotype 1b, UniProt P26663)", "category": "yes"}
{"molecule": "CC[C@@H](N[C@@H](C)CC(=O)NC(C)(C)CN)c1ccc(Cl)c(Oc2ccccc2)c1F [Example 252]", "system-tested": "HCV NS3 protease (full length NS34a) (Hepatitis C virus genotype 1b, UniProt P26663)", "category": "no"}
{"molecule": "CC[C@@H](N)c1ccc(Cl)c(Oc2cccc(S(C)(=O)=O)c2)c1F [Example 170]", "system-tested": "HCV NS3 protease (full length NS34a) (Hepatitis C virus genotype 1b, UniProt P26663)", "category": "no"}
{"molecule": "CC[C@@H](N[C@@H](C)CC(=O)NOC)c1ccc(Cl)c(Oc2ccccc2)c1F [Example 155]", "system-tested": "HCV NS3 protease (full length NS34a) (Hepatitis C virus genotype 1b, UniProt P26663)", "category": "no"}
{"molecule": "Cc1cc(Oc2c(Cl)ccc([C@@H](N)C3CCOCC3)c2F)ccc1[N+](=O)[O-] [Example 345]", "system-tested": "HCV NS3 protease (full length NS34a) (Hepatitis C virus genotype 1b, UniProt P26663)", "category": "no"}
{"molecule": "CC[C@@H](N[C@H](C)CC(N)=O)c1ccc(Cl)c(Oc2ccc(-c3cnco3)c(C)c2)c1F [Example 318]", "system-tested": "HCV NS3 protease (full length NS34a) (Hepatitis C virus genotype 1b, UniProt P26663)", "category": "no"}
{"molecule": "CC[C@@H](N[C@@H](C)c1[nH]cnc1C)c1ccc(Cl)c(Oc2ccccc2)c1F [Example 148]", "system-tested": "HCV NS3 protease (full length NS34a) (Hepatitis C virus genotype 1b, UniProt P26663)", "category": "no"}
{"molecule": "CC[C@@H](N[C@@H](C)CC(=O)NN)c1ccc(Cl)c(Oc2ccccc2)c1F [Example 154]", "system-tested": "HCV NS3 protease (full length NS34a) (Hepatitis C virus genotype 1b, UniProt P26663)", "category": "yes"}

====

Target: HCV NS3 protease (full length NS34a) (Hepatitis C virus genotype 1b)
Construct: The protease activity of the full length NS34a was measured using a FRET-based assay; made in house
Experiment: HCV NS3 protease assay (FRET, full length NS34a)
Format: biochemical
Details: protease activity of full length NS34a, FRET peptide substrate; read-out: Activity IC50
Where a name gives a salt, the structure may show the parent alone.
Mark class 1 for IC50 under 700 nM, class 0 if at or over.

{"compound": "CC[C@@H](N[C@H](C)CC(N)=O)c1ccc(Cl)c(Oc2ccc3c(c2)C(C)(C)CN3)c1F [Example 323]", "category": "class 0"}
{"compound": "CC[C@H](N[C@@H](C)CC(N)=O)c1ccc(Cl)c(Oc2ccccc2)c1F [Example 79]", "category": "class 1"}
{"compound": "CC[C@@H](N[C@@H](C)CC(N)=O)c1ccc(Cl)c(Oc2ccc(N)c(F)c2)c1F [Example 333]", "category": "class 1"}
{"compound": "N[C@H](c1ccc(F)c(Oc2ccccc2)c1F)[C@@H]1CCCNC1 [Example 59B, dihydrochloride]", "category": "class 0"}
{"compound": "CCC(NC(CO)CO)c1ccc(F)c(Oc2ccccc2)c1F (stereo not drawn) [Example 43]", "category": "class 0"}
{"compound": "CC[C@@H](N)c1ccc(Cl)c(Oc2ccc(F)cc2)c1F [Example 150]", "category": "class 0"}
{"compound": "CC[C@@H](N)c1ccc(Cl)c(Oc2ccc(N)c(C)c2)c1F [Example 112]", "category": "class 1"}
{"compound": "CC[C@@H](N[C@@H](C)CC(N)=O)c1ccc(Cl)c(Oc2ccc(C)nc2)c1F [Example 313]", "category": "class 1"}
{"compound": "C[C@H](CC(=O)NCCN)NCc1ccc(Cl)c(Oc2ccccc2)c1F [Example 107]", "category": "class 1"}
{"compound": "CCC(NC(C)CC(N)=O)c1ccc(F)c(Oc2ccccc2)c1F (stereo not drawn) [Example 66]", "category": "class 0"}
{"compound": "CC[C@@H](N[C@@H](C)CC(=O)N[C@H]1CCNC1)c1ccc(Cl)c(Oc2ccccc2)c1F [Example 250]", "category": "class 0"}
{"compound": "CC[C@@H](N[C@@H](C)CC(N)=O)c1ccc(Cl)c(Oc2ccccc2)c1F (single isomer, unassigned) [Example 88]", "category": "class 1"}
{"compound": "CC(CO)NC(c1ccc(F)c(Oc2ccccc2)c1F)C1CCNCC1 (single isomer, unassigned) [Example 76]", "category": "class 0"}
{"compound": "CC[C@@H](N)c1ccc(Cl)c(Oc2ccnc(C)c2)c1F [Example 168]", "category": "class 0"}
{"compound": "CC[C@@H](N[C@@H](C)CC(N)=O)c1ccc(Cl)c(Oc2cccc(C#N)c2)c1F [Example 226]", "category": "class 1"}
{"compound": "Cc1cc(Oc2c(F)ccc(CN[C@H]3CC[C@H](N)CC3)c2F)ccc1N [Example 287]", "category": "class 1"}
{"compound": "CC[C@@H](N)c1ccc(Cl)c(Oc2cccc(C(N)=O)c2)c1F [Example 172]", "category": "class 0"}
{"compound": "CC[C@@H](N[C@H](C)CC(=O)N[C@H](C)CO)c1ccc(Cl)c(Oc2ccccc2)c1F [Example 208]", "category": "class 0"}
{"compound": "CC[C@@H](N)c1ccc(Cl)c(Oc2ccc(C#N)c(F)c2)c1F [Example 166]", "category": "class 0"}
{"compound": "N[C@H]1CC[C@@H](NCc2ccc(F)c(Oc3ccccc3)c2F)CC1 [Example 283]", "category": "class 0"}
{"compound": "CC[C@@H](N)c1ccc(Cl)c(Oc2ccc3c(c2)CCO3)c1F [Example 193]", "category": "class 0"}
{"compound": "CC[C@@H](N)c1ccc(Cl)c(Oc2cccc(NS(C)(=O)=O)c2)c1F [Example 151]", "category": "class 0"}
{"compound": "CC[C@@H](N)c1ccc(Cl)c(Oc2ccc(N)cn2)c1F [Example 156]", "category": "class 0"}

====

Biological target: HCV NS3 protease (full length NS34a) (Hepatitis C virus genotype 1b, UniProt P26663)
Construct: The protease activity of the full length NS34a was measured using a FRET-based assay; made in house
Test: HCV NS3 protease assay (FRET, full length NS34a)
Type: biochemical
Settings: protease activity of full length NS34a, FRET peptide substrate; read-out: Activity IC50
IC50 for assorted compounds
assay-metric: IC50 (µM)

{"compound": "CC[C@@H](N[C@@H](C)CC(N)=O)c1ccc(Cl)c(Oc2cccc(CO)c2)c1F [Example 116]", "assay-metric": "IC50", "measured": 0.13}
{"compound": "N[C@H]1CC[C@H](NCc2ccc(F)c(Oc3ccccc3)c2Cl)CC1 [Example 290]", "assay-metric": "IC50", "measured": 3.4}
{"compound": "CC[C@H](N)c1ccc(Cl)c(Oc2ccc(N)nc2)c1F [Example 114]", "assay-metric": "IC50", "measured": 1}
{"compound": "CCC(NCCCO)c1ccc(F)c(Oc2ccccc2)c1F (stereo not shown) [Example 56]", "assay-metric": "IC50", "measured": 1.1}
